# System: IGROV1 ovarian
# Measurement Protocol: NCI tumour cell line growth inhibition, 48 h
Observation Type: TGI (µM)
Express the result in µM but write the number alone.

Input: Given the compound Cc1nc2c(o1)C(=O)c1ccccc1/C2=N/c1ccccn1 , what is its reported TGI?
Output: 51.4

Input: Same lookup for O=C1CCCc2c1c1c(n2Cc2ccccc2)-c2ccccc2C1=O , please.
Output: 72.1

Input: Also O=Cc1ccc(-c2ccc(-c3ccc(C=O)s3)o2)s1 , if possible.
Output: 35.8

###

# Test system: HCC-2998 colon
# Measurement Protocol: NCI tumour cell line growth inhibition, 48 h
Observation Type: TGI

Input: I'd like to know its TGI. The compound in question is CCC[C@H](N[C@@H]1CCc2cc(F)cc(F)c2C1)C(=O)Nc1cn(C(C)(C)CNCC(C)(C)C)cn1
Output: > 81.1 µM

Input: Entry to check: CC(=O)OC1CC2CCC1(C)C2(C)C (stereo not given)
Output: > 100 µM

Input: What do you have for O=P(O)(O)C(CSc1ccccc1)P(=O)(O)O ?
Output: > 100 µM

Input: Moving on to CC1(c2ccc(Cl)cc2)CC(c2ccc(Cl)cc2)=C(C#N)C(=C(C#N)C#N)N1 (stereo not given)
Output: 29.5 µM

Input: Next up: Cc1ccc(/C=C/C(=O)c2c([O-])on[n+]2-c2ccccc2)cc1
Output: 4.15 µM

Input: # repeat for O=Cc1ccc(-c2ccc(-c3ccc(C=O)s3)o2)s1
Output: 51.5 µM

Input: Now this one: O=c1/c(=C/c2ccc(Cl)cc2Cl)sc2nc3ccccc3n12
Output: > 100 µM

Input: Can you check N=C(N)SCCc1cn2ccccc2n1 next?
Output: > 100 µM

Input: What do you have for CCOc1ccccc1/C=C1\NC(=O)N(/C=C2\C(=O)Oc3ccccc3C2=O)C1=O ?
Output: > 100 µM

Input: And what about the compound COc1ccc2c(c1)c(C1(c3cn(C)c4ccc(OC)cc34)C(=O)Nc3ccc(F)cc31)cn2C ?
Output: > 100 µM

Input: Same again, this time with O=C(CN1CCN(C(=O)OCc2ccccc2)CCN(CC(=O)N2CCCCC2)CCN(C(=O)OCc2ccccc2)CC1)N1CCCCC1
Output: 25.2 µM

Input: Query CCCCCCCCCCCCCCCc1cc(O)ccc1N next
Output: > 100 µM

Input: Can you check NNC(=O)CNC(=O)CSc1nnc(COc2ccc(Cl)cc2)n1-c1ccccc1 next?
Output: > 100 µM

Input: Same question for O=C1C=C(Nc2ccccc2C(=O)CC(=O)C(=O)Nc2cccc(C(F)(F)F)c2)c2ccccc2C1=O please.
Output: > 78 µM

Input: Quick one: CCC1CC2CN3CCc4c([nH]c5c(-c6c(OC)ccc7c8c([nH]c67)[C@]6(C(=O)OC)CC7CC(CC)C6N(CC8)C7)c(O)ccc45)[C@](C(=O)OC)(C2)C13 (stereo not given in full)
Output: 27.2 µM

Input: NNC(=O)c1c(Cl)c(Cl)c(Cl)c(Cl)c1-c1nc2ccccc2[nH]1 , same question.
Output: 22.5 µM

Input: Next record, please: O=C(Nc1c(-c2nc3ccccc3[nH]2)sc(=S)n1-c1ccccc1)c1ccccc1
Output: > 100 µM

Input: Next compound: COc1cc2c(c(OC)c1OC)-c1[nH]ncc1CC2
Output: > 100 µM

Input: Subsequent entry: CN1C(c2ccccc2)=CC(=O)C(O)=C(c2ccccc2)S1(=O)=O
Output: > 100 µM

Input: Would you mind doing COC(CCP(=O)(c1ccccc1)c1ccccc1)(C(=O)c1ccccc1)c1ccccc1 (stereo not given) as well?
Output: 17.9 µM
